All values here come from patent US9676760B2.

# TARGET_ENTITY: hNav 1.1 sodium channel isoform (Homo sapiens, UniProt P35498)
# Construct: expressed in transfected cells; host or cells: HEK293, transient transfection (Qiagen Superfect)
# ASSAY_OVERVIEW: hNav1.1 whole-cell voltage-clamp assay
# Assay type: cell-based
# STATED_CONDITIONS: % Inhibition at 1 uM; use-dependent block, 10 Hz; read-out: NAV1.1* UDB-10HZ
OBSERVATION_TYPE: inhibition at 1 µM (%)

>>> endpoint_value("O=C1c2cc(-c3ccc(OC(F)(F)F)cc3)ccc2OCCN1Cc1ccc2ccccc2n1")
0
>>> endpoint_value("N#Cc1cccc(CN2CCOc3ccc(-c4ccc(OC(F)(F)F)cc4)cc3C2=O)n1")
16
>>> endpoint_value("Cc1ccnc(CN2CCOc3cnc(-c4ccc(OC(F)(F)F)cc4)cc3C2=O)n1")
11
>>> endpoint_value("O=C1c2cc(-c3ccc(OC(F)(F)F)cc3)ccc2OCCN1CC1CC1")
-4
>>> endpoint_value("O=C1c2cc(-c3ccc(C(F)(F)F)cc3Cl)ccc2OCCN1Cc1ncccn1")
-4
>>> endpoint_value("O=C1c2cc(-c3ccc(Cl)cc3F)ccc2OCCN1Cc1ncccn1")
-11
>>> endpoint_value("O=C1c2cc(-c3ccc(C(F)(F)F)cc3)ccc2OCCN1Cc1cn2ccccc2n1")
8
>>> endpoint_value("CN1CCOc2ccc(-c3ccc(OC(F)(F)F)cc3)cc2C1=O")
2
>>> endpoint_value("COc1cccnc1CN1CCOc2ccc(-c3ccc(OC(F)(F)F)cc3)cc2C1=O")
29

* * *

# TARGET_ENTITY: wild-type human cardiac sodium channel, hNav1.5 (Homo sapiens)
# Sequence (Q14524 whole entry): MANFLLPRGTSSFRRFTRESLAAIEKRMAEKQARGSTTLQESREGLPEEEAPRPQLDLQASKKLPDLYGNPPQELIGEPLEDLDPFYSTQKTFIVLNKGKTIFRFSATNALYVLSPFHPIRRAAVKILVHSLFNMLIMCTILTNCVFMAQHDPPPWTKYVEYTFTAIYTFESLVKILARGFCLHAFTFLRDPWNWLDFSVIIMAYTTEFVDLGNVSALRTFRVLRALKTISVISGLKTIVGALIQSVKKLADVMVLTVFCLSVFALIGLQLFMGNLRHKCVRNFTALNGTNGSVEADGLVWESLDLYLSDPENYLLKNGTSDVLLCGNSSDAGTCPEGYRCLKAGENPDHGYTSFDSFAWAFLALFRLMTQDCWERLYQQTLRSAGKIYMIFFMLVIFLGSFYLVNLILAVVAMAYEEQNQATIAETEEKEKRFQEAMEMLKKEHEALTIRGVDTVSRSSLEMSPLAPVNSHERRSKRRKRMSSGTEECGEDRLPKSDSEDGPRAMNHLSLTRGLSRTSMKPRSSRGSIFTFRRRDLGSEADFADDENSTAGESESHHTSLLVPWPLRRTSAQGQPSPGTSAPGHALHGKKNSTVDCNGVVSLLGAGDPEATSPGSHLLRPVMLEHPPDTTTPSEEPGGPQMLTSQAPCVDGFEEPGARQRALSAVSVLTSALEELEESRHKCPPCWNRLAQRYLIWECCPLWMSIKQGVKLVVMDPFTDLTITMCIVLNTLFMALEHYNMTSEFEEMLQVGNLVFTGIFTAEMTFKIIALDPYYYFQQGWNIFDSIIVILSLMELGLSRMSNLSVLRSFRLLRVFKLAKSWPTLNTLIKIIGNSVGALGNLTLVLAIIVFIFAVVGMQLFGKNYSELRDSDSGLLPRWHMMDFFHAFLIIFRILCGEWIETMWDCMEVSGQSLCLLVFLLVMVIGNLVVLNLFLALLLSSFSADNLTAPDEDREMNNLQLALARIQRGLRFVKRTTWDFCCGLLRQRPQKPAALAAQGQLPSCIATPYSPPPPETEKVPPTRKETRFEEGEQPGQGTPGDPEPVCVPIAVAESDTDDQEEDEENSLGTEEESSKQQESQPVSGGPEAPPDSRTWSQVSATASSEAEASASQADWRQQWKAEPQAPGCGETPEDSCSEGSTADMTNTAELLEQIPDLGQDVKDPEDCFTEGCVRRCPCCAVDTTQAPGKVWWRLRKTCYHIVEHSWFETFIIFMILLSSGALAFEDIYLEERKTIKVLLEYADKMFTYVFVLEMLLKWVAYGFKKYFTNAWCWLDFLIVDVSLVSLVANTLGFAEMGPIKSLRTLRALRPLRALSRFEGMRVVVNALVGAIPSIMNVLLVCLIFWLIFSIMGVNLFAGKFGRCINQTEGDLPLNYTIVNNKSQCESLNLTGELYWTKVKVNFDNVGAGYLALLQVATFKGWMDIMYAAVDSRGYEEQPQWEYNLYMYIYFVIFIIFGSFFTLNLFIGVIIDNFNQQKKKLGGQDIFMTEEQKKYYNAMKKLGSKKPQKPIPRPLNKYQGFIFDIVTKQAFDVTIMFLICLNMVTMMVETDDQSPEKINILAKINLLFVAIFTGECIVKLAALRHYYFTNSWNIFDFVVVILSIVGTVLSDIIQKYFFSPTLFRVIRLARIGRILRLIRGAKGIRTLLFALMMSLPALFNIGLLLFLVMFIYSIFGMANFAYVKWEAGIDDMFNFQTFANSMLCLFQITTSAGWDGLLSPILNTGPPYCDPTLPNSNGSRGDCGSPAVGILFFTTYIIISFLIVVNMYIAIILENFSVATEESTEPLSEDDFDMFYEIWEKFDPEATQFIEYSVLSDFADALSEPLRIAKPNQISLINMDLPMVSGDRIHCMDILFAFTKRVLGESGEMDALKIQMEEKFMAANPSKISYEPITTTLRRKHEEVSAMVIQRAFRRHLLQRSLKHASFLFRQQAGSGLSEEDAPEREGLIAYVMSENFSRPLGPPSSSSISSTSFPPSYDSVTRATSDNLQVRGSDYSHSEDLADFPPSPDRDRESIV
# ASSAY_OVERVIEW: Peak INa screening assay (tonic and use-dependent block)
# Assay type: cell-based
# STATED_CONDITIONS: tonic block of peak INa, 0.1 Hz; compound at 1 μM; read-out: Peak TB 1 μM
OBSERVATION_TYPE: inhibition at 1 µM (%)

>>> endpoint_value("CC1CC=C(c2ccc3c(c2)C(=O)N(Cc2ncccn2)CCO3)CC1 (stereo not drawn)")
5
>>> endpoint_value("CN1C(=O)CN(Cc2ccccc2)C(=O)c2cc(-c3ccc(C(F)(F)F)cc3)ccc21")
17
>>> endpoint_value("O=C1c2cc(-c3ccc(OC(F)(F)F)cc3)ccc2OCCN1Cc1nccn1Cc1ccccc1")
9
>>> endpoint_value("O=C1c2nc(-c3ccc(OC(F)(F)F)cc3)ccc2OCCN1Cc1ccccc1")
45
>>> endpoint_value("O=C(c1cc[nH]n1)N1CCOc2ccc(-c3ccc(OC(F)(F)F)cc3)cc2C1")
19
>>> endpoint_value("O=C1c2cc(-c3ccc(C4CC4)s3)ccc2OCCN1Cc1ccccn1")
28
>>> endpoint_value("Cc1cccnc1CN1CCOc2ccc(-c3ccc(OC(F)(F)F)cc3)cc2C1=O")
45
>>> endpoint_value("O=C1c2cc(-c3ccc(CC(F)(F)F)cc3)ccc2OCCN1Cc1ccccn1")
13
>>> endpoint_value("O=C1c2cc(-c3ccc(OC(F)(F)F)cc3)c(F)cc2OCCN1Cc1ccccc1")
20

* * *

Measured inhibition at 1 µM accompanies every entry in the list below.
# TARGET_ENTITY: hNav 1.2 sodium channel isoform (Homo sapiens)
# Construct: expressed in transfected cells
# Sequence (Q99250 whole entry, canonical isoform): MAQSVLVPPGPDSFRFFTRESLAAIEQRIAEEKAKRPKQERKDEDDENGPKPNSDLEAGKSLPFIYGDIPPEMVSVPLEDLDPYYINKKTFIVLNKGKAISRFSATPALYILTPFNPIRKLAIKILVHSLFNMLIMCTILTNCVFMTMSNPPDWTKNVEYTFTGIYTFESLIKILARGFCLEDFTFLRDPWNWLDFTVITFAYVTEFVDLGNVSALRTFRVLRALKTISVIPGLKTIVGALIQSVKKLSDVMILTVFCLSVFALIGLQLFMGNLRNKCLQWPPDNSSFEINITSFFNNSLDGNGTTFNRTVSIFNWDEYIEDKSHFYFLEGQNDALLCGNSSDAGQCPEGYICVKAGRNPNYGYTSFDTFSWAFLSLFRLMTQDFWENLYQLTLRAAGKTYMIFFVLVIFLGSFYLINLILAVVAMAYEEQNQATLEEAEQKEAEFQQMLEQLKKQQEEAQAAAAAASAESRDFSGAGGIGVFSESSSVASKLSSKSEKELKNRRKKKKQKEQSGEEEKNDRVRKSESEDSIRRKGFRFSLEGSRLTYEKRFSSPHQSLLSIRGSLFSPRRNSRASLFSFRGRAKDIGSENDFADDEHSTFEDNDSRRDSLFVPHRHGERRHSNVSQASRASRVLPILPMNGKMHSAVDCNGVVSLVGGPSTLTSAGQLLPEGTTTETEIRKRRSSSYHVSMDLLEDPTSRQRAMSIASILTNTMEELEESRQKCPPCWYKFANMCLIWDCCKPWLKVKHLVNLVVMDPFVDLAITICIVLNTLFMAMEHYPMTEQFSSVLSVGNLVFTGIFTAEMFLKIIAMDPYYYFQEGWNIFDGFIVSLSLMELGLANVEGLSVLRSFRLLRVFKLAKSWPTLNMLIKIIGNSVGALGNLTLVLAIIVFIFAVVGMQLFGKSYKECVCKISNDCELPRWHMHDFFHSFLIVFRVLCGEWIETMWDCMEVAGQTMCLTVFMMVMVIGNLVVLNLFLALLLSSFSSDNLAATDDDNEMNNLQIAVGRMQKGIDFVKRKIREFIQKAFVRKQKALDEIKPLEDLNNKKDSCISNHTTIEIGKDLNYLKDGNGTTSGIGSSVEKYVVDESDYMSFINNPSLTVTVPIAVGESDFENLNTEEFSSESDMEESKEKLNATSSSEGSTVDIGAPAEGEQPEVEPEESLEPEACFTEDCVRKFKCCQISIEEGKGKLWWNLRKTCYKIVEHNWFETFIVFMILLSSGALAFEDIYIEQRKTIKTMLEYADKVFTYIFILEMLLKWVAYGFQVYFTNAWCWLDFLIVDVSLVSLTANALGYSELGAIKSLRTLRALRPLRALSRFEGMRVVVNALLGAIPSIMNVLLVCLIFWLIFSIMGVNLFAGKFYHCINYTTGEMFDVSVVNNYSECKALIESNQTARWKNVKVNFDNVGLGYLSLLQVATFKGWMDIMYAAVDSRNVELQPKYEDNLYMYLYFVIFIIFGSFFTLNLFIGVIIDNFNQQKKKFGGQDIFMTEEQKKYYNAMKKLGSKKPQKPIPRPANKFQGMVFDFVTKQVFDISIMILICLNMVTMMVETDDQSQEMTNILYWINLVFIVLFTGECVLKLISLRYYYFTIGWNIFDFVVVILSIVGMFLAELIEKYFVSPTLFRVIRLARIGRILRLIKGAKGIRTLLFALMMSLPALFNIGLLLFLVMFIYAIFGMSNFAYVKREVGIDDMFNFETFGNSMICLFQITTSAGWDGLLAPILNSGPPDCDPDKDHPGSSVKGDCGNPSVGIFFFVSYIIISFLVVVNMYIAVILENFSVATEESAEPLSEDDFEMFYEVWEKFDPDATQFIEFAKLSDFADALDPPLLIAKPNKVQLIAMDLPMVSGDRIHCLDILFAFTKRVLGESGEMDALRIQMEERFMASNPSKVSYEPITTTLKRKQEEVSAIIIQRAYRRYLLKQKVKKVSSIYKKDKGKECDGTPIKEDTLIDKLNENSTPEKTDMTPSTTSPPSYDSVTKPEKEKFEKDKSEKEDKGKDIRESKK
# ASSAY_OVERVIEW: hNav1.2 whole-cell voltage-clamp assay
# Format: cell-based
# STATED_CONDITIONS: use-dependent block, 10 Hz, read-out: NAV1.2* UDB-10HZ
OBSERVATION_TYPE: inhibition at 1 µM (%)

>>> endpoint_value("O=C1CN(Cc2ccccc2)C(=O)c2cc(-c3ccc(C(F)(F)F)cc3)ccc2N1")
-14
>>> endpoint_value("O=C1c2cc(-c3ccc(C(F)(F)F)cc3F)ccc2OCCN1Cc1ncccn1")
1
>>> endpoint_value("O=C1c2cc(-c3ccc(C(F)(F)F)cc3Cl)ccc2OCCN1Cc1ncccn1")
-2
>>> endpoint_value("O=C1c2cc(-c3ccc(OC(F)(F)F)cc3)ccc2OCCN1Cc1ccc2ccccc2n1")
13
>>> endpoint_value("O=C1c2cc(-c3ccc(OC(F)(F)F)cc3)ncc2OCCN1Cc1ccccc1")
-4
>>> endpoint_value("O=C1c2cc(-c3ccc(OC(F)(F)F)cc3)ccc2OCCN1CC1CC1")
9
>>> endpoint_value("O=C1c2cc(C#Cc3ccc(OC(F)(F)F)cc3)ccc2OCCN1Cc1ncccn1")
18
>>> endpoint_value("CC1CC=C(c2ccc3c(c2)C(=O)N(Cc2ncccn2)CCO3)CC1 (stereo not shown)")
3
>>> endpoint_value("Cc1cccnc1CN1CCOc2ccc(-c3ccc(OC(F)(F)F)cc3)cc2C1=O")
52
>>> endpoint_value("O=C1c2cc(-c3ccc(C(F)(F)F)cc3)ccc2OCCN1Cc1cn2ccccc2n1")
7
>>> endpoint_value("O=C1c2cc(-c3ccc(C(F)(F)F)cc3)ccc2OC[C@H]2CN(CC(F)(F)F)CCN12")
10
>>> endpoint_value("Cc1ccnc(CN2CCOc3ccc(-c4ccc(OC(F)(F)F)cc4)cc3C2=O)n1")
40
>>> endpoint_value("O=C1c2cc(-c3ccc(Cl)cc3)ccc2OCCN1Cc1ncccn1")
-1
>>> endpoint_value("O=C1c2cc(C#Cc3ccc(C(F)(F)F)cc3)ccc2OCCN1Cc1ncccn1")
20
>>> endpoint_value("O=C1c2cc(-c3ccc(C(F)(F)F)cc3)ccc2OC[C@H]2CN(CC(F)F)CCN12")
15
>>> endpoint_value("CC(C)(C)c1ccc(-c2ccc3c(c2)C(=O)N(Cc2ncccn2)CCO3)cc1")
-8
